Assignment: determine reported fluorescence artifact activation for the given compounds.
# experiment summary: IANBD-channel fluorescence artefacts in buffer – biochemical, artefact control for cardiac RTF calcium sensitizer project, confirmation (AID 504382)
# conditions used: IANBD fluorescence interference counterscreen, EC20 Ca2+, at 7.2 µM, active compounds read high, scaled: EC20 calcium 0, EC100 calcium 100
Hit rate of the full screen: of about 2,500 compounds, about 460 (18%) were called active. A selection follows.
The response must be a number in % with no trailing unit.

Which fluorescence artifact activation is reported for this compound? `CCn1c(CNc2ccc(C(=O)O)cc2)nc2ccccc21`
-0.08

Same question, `CCc1ccc(NC(=O)C2CCN(S(=O)(=O)c3ccc4[nH]c(=O)ccc4c3)CC2)cc1` this time
0.08

Same question, `COC(=O)CCN(C(=O)c1ccc([N+](=O)[O-])cc1)c1ccccn1` this time
4.76

Same question, `CCOCCn1c(CN2CCN(CC)CC2)nc2c1c(=O)n(C)c(=O)n2C` this time
21.1

Same question, CN(C)C(CNC(=O)c1cccc(S(=O)(=O)N(C)C)c1)c1ccccc1 (stereo unspecified) this time
4.02

Same question, `O=C(NCCNC(=O)c1cccs1)c1ccco1` this time
10.5

Same question, `Cc1cn(COC/C=C/c2ccccc2)c(=O)[nH]c1=O` this time
25.6

Same question, `Cc1ccc(/C=C2/SC(=O)NC2=S)o1` this time
6.76

Same question, `O=C(Cn1c(C(F)(F)F)nc2ccccc21)NCCN1CCCC1` this time
0.11

Same question, `Cc1ccc(S(=O)(=O)Nc2ccc3ncccc3c2[N+](=O)[O-])cc1` this time
0.33

Same question, `Cn1c(=O)c2c(nc(NCCNC(=O)c3ccco3)n2Cc2ccccc2Cl)n(C)c1=O` this time
0.11

Same question, `Cc1c(Cl)c([N+](=O)[O-])nn1CC(=O)N1CCN(C23CC4CC(CC(C4)C2)C3)CC1` this time
0.69

Same question, `Cc1cccc(NC(=O)CN2C(=O)N/C(=C/c3ccc(C)s3)C2=O)c1` this time
0.09

Same question, `COCCNC(=O)/C(C#N)=C/c1ccc(N2CCOCC2)o1` this time
-0.05

Same question, `c1ccc(CCCN2CCN(c3ccccc3)CC2)cc1` this time
0

Same question, `CN(C)c1ccc(/C=C2\SC(N3CCCCC3)=NC2=O)cc1` this time
193

Same question, CCOC(=O)C(C(=O)Nc1cccc(C)n1)C1CCCCC1 (stereo unspecified) this time
-0.06

Same question, `Oc1[nH]c2ccccc2c1N=Nc1ccc(F)cc1` this time
34.1

Same question, `CC(C)Cn1c(N)c(C(=O)COC(=O)c2cc(F)cc(F)c2)c(=O)n(C)c1=O` this time
40.2

Same question, `C#CCN1C(=O)S/C(=C/C=C/c2ccc(N(C)C)cc2)C1=O` this time
0.36

Same question, CCOc1ccc(C2OC34CCCCC3C(C#N)(C#N)C2(C#N)C(=N)O4)cc1OC (stereo unspecified) this time
0.1

====

# experiment summary: IANBD-channel fluorescence artefacts in buffer – biochemical, artefact control for cardiac RTF calcium sensitizer project, confirmation (AID 504382)
# conditions used: IANBD fluorescence interference counterscreen, EC20 Ca2+, at 7.2 µM, scaled: EC20 calcium 0, EC100 calcium 100
The whole screen tested about 2,500 compounds, of which about 460 (18%) were called active.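 Rule for the calls: active = mean activation above a cutoff of low control average plus 3 SD from the earlier screen (cut at about 12% in these data); inactive = the rest.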 The list is a sample of the results.
Permitted responses: active, inactive

I'd appreciate the recorded outcome for `COc1[nH]c(/N=C/c2ccccc2)c(C#N)c1C#N` from this test.
inactive

Same question, `CN(C)c1ccc(/C=C/C(=O)c2cc(Cl)ccc2O)cc1` this time
inactive

Same question, `CCN(CC)c1ccc(/C=c2/sc3nnc(-c4ccccc4C)n3c2=O)cc1` this time
inactive

Same question, `CCN(CC)c1ccc2cc(-c3nc4ccccc4n3C)c(=O)oc2c1` this time
inactive

Same question, `Cc1cc(C(=O)COc2cccc3cccnc23)c(C)n1C` this time
active

Same question, `Cc1cccn2c(=O)c3cc(C#N)c(=NC(=O)c4cccs4)n(CCCOC(C)C)c3nc12` this time
inactive

Same question, `Oc1[nH]c2ccc(Br)cc2c1N=Nc1ccc(F)cc1` this time
inactive

Same question, `COC(=O)c1c(=O)n(O)c2ccc(OC)cc2[n+]1[O-]` this time
inactive

Same question, `Cc1ccc(CNC(=O)CCS(=O)(=O)c2cc3c(cc2C)NC(=O)CO3)cc1` this time
inactive

====

# experiment summary: IANBD-channel fluorescence artefacts in buffer – biochemical, artefact control for cardiac RTF calcium sensitizer project, confirmation (AID 504382)
# conditions used: IANBD fluorescence interference counterscreen, EC20 Ca2+, at 7.2 µM, active compounds read high, scaled: EC20 calcium 0, EC100 calcium 100
Among all 2,500 compounds or so, about 460 (18%) were called active. Only a sample is shown.
measured parameter: fluorescence artifact activation (%)
The response must be a number in % with no trailing unit.

Which fluorescence artifact activation is reported for this molecule? `COc1ccc(C(=O)c2ccsc2N)cc1`
3.39

Same question, CCOC(=O)C1(Cc2cccc(OC)c2)CCCN(Cc2nccn2CC)C1 (stereo unspecified) this time
0.29

Same question, `CCOc1ccc(Cn2c3ccc(OC)cc3c3nc4ccccc4nc32)cc1` this time
23.1

Same question, `Cc1ccc(S(=O)(=O)N2CCOCC2)cc1NC(=O)CSc1nccn1C` this time
0.07

Same question, `O=C1c2cccc3c(N4CCCCC4)ccc(c23)C(=O)N1c1cccc(O)c1` this time
6.35

Same question, `Nc1c(C(=O)Nc2ccc(S(=O)(=O)N3CCCC3)cc2)sc2nc3ccc(OC(F)(F)F)cc3cc12` this time
0.16

====

# experiment summary: IANBD-channel fluorescence artefacts in buffer – biochemical, artefact control for cardiac RTF calcium sensitizer project, confirmation (AID 504382)
# conditions used: IANBD fluorescence interference counterscreen, EC20 Ca2+, at 7.2 µM, active compounds read high, scaled: EC20 calcium 0, EC100 calcium 100
In all, about 2,500 compounds went through this assay and about 460 (18%) were called active. These entries were drawn from the full list.
Assignment: determine reported fluorescence artifact activation for the given molecules.
The response must be a number in % with no trailing unit.

Which fluorescence artifact activation is reported for this molecule? `CNc1ccc2c3c(cccc13)C(=O)N(C)C2=O`
40.8

Same question, `CCCCNc1ccc2c3c(cccc13)C(=O)N(CCCC)C2=O` this time
-0.02

Same question, `C/C(=N/NC(=O)c1cc(C)[nH]n1)c1ccco1` this time
0.79

Same question, `O=c1[nH]c(-[n+]2ccccc2)c(/C=N/NC([S-])=Nc2ccccc2)s1` this time
0.03

Same question, `Cc1ccccc1N1C(=O)c2cccc3c(N(C)CCO)ccc(c23)C1=O` this time
-0.04

Same question, COc1ccc2[nH]c3c(c2c1)CCNC3c1ccc([N+](=O)[O-])o1 (configuration not stated) this time
-0.02

Same question, `Cc1nnc(N/N=C/c2ccc(O)c([N+](=O)[O-])c2)[nH]c1=O` this time
8.03

====

# experiment summary: IANBD-channel fluorescence artefacts in buffer – biochemical, artefact control for cardiac RTF calcium sensitizer project, confirmation (AID 504382)
# conditions used: IANBD fluorescence interference counterscreen, EC20 Ca2+, at 7.2 µM, active compounds read high, scaled: EC20 calcium 0, EC100 calcium 100
Screen size: about 2,500 compounds; about 460 (18%) were called active. Not all results are given here.
The threshold is inclusive: fluorescence artifact activation of exactly 0.08% counts as true; values below receive false.

Check the entry `O=C1CSC(=S)N1c1ccc(O)cc1` : does fluorescence artifact activation equal or exceed 0.08%?
false

Same question, `C/C(=N\Nc1ccc([N+](=O)[O-])cc1[N+](=O)[O-])c1cccnc1` this time
false

Same question, `Fc1ccc(CNCc2ccc(Br)cc2)cc1` this time
false

Same question, `N#Cc1cccc(NC(=O)CSc2ccc3c4c(cccc24)C(=O)c2ccccc2-3)c1` this time
true

Same question, `O=C(COC(=O)C1CCCCC1)Nc1ccc([N+](=O)[O-])cc1` this time
true

Same question, `Cn1cccc1Cc1nnc(SCC(=O)Nc2ccc(F)cc2F)n1-c1ccc(F)cc1` this time
true

Same question, O=C(COC(=O)C1CCC(=O)N1)Nc1ccc(Oc2ccccc2)cc1 (stereo not given) this time
true

Same question, COc1ccc(/C(O)=C2\C(=O)C(=O)N(Cc3ccco3)C2c2cc(OC)ccc2OC)cc1 (stereo not given) this time
true

Same question, NS(=O)(=O)c1ccc(-c2ccc(/C=C3\SC(=S)N(C4CCS(=O)(=O)C4)C3=O)o2)cc1 (stereo not given) this time
true

Same question, `CCN(CC)c1ccc(NC(=S)Nc2ccc(F)cc2)cc1` this time
true

Same question, `CC(C)c1ccc(N2C(=O)/C(=C/N(C)C)SC2=S)cc1` this time
true

Same question, `O=C1/C(=C\c2c(NCCOCCO)nc3ccccn3c2=O)SC(=S)N1Cc1ccco1` this time
true

Same question, `Cc1ccc(-c2nc3ncccn3c2Nc2ccc3c(c2)OCCO3)o1` this time
true

Same question, `O=C([O-])c1ccccc1-[n+]1c(-c2ccccc2)cc(-c2ccccc2)cc1-c1ccccc1` this time
false

Same question, `CCCN(CCC)c1nc2c(C)cccn2c(=O)c1/C=C1/SC(=S)N(Cc2ccco2)C1=O` this time
false

Same question, COc1ccc(C2c3ccc(O)cc3Oc3ncn(Cc4ccccc4)c(=N)c32)cc1OC (stereo not given) this time
false

Same question, N=c1c2c(ncn1Cc1ccco1)Oc1cc(O)ccc1C2c1ccccc1 (stereo not given) this time
true

Same question, Cc1ccc(C)c(S(=O)(=O)N2CCCC2CNC(=O)C(=O)NC2CC2)c1 (stereo not given) this time
true

Same question, C/C(=N\NC(=O)c1cc2c(s1)CCC(C)C2)c1ccc[nH]1 (stereo not given) this time
false
